METHOD: cancer stem cell viability inhibitors, primary screen, luminescence (AID 2717)
MEASUREMENT_SETUP: cancer stem cell-like cells viability, at 7.5 µM, stronger effect = higher value
The whole screen tested about 300,000 compounds, of which about 3,200 (1.1%) were called active. The sample holds actives, similar compounds and a random draw of the others, so the mix is not that of the screen.
OUTCOME_MEASURE: inhibition (%)
Output spec: scalar in %, unitless text.

Field: example entries. Status: answers known.
- MOLECULE: "O=C(COCc1cc(-c2ccc3c(c2)OCO3)on1)N1CCN(c2cccc(Cl)c2)CC1"
  QUANTITATIVE_RESULT: 36.2
- MOLECULE: "COc1ccc(-n2cnnc2SCC(=O)Nc2cccc([N+](=O)[O-])c2)cc1"
  QUANTITATIVE_RESULT: -0.247
- MOLECULE: "CCOCCn1c(-c2ccccc2)nc2ccccc21"
  QUANTITATIVE_RESULT: -0.165
- MOLECULE: "CCCc1cc(=O)[nH]c(SCC(=O)OCc2ccccc2)n1"
  QUANTITATIVE_RESULT: 4.11
- MOLECULE: "Cc1ccc2c(c1)C1C[N+](C)(CC(=O)c3ccccc3)CCC1N2C(=O)c1ccccc1Cl (stereo unspecified)"
  QUANTITATIVE_RESULT: -11.4

molecule CCC(CO)Oc1cc(NC(=O)c2cccc(F)c2)c2ncn(C(C)C)c2c1 (stereo unspecified) , inhibition observed: -13.2

Notebook: O=S(=O)(Nc1ccc(O)c2ccccc12)c1ccc(OC(F)(F)F)cc1 , inhibition read as 106

---

METHOD: cancer stem cell viability inhibitors, primary screen, luminescence (AID 2717)
MEASUREMENT_SETUP: cancer stem cell-like cells viability, at 7.5 µM, stronger effect = higher value
Screen size: about 300,000 compounds; about 3,200 (1.1%) were called active. Only a selection was taken, and actives are over-represented in it overall.
OUTCOME_MEASURE: inhibition (%)
All answers are understood in %, so give the number only.

Some solved entries appear below for comparison.
- COMPOUND: "O=C1COc2ccc(C(=O)COC(=O)c3ccccc3Cl)cc2N1"
  inhibition (%): -17.8
- COMPOUND: "CCc1ccc(-c2nn(-c3ccccc3)cc2CSC(=N)N)cc1"
  inhibition (%): 118
- COMPOUND: "CC(=O)Oc1ccccc1C(=O)Nc1ncc([N+](=O)[O-])s1"
  inhibition (%): 76.2

Just so you know, measured inhibition for Cc1cc(C)c(NC(=O)C[N+](C)(C)CC(O)COc2cccc3ccccc23)c(C)c1 (stereo not given) came out at -3.82

Value of measured inhibition for the entry O=C(Nc1ncc([N+](=O)[O-])s1)C1COc2ccccc2O1 (stereo not given) : 54.2

# inhibition of CC(=O)c1c(C)[nH]c(C(=O)COC(=O)c2cccs2)c1C = -12.4

# inhibition (compound: COc1ccc(-c2c(C#Cc3ccsc3)c3cc(-c4ccc(CN5CCOCC5)cc4)ccc3n2C)cc1 ) is 31.2

Entry O=C(Nc1cn(-c2ccccc2)nc1-c1ccccc1)c1ccccc1 , inhibition reported as -3.4

For reference, reported inhibition for OC(COc1cccc2ccccc12)CN1CCN(c2ccccn2)CC1 (stereo not given) stands at -5.87

For record CCc1ccc(-c2nn(-c3ccccc3C)cc2C(=O)N2CCN(C3CCS(=O)(=O)C3)CC2)cc1 (stereo not given) the listed inhibition is -16.1

Hey, just so you know, these numbers are from PubChem BioAssay AID2717.
